Test system: cyBCMA
ASSAY_PROCEDURE: Kinetics and affinity of cyBCMA/human IgG interactions by SPR (Bio-Rad Proteon XPR36)
Format: binding, cynomolgus
RUN_PARAMETERS: 25° C.
Returns: string. Value is Yes if measured ka (1/Ms) cyBCMA @ 25° C. is below 800000 M⁻¹ s⁻¹, and No if it is greater than or equal to it.

INSERT INTO results (molecule, class_label) VALUES
  ('L1.LGF/L3.KW/H3.AL: anti-BCMA antibody (antibody, V domains shown) VH: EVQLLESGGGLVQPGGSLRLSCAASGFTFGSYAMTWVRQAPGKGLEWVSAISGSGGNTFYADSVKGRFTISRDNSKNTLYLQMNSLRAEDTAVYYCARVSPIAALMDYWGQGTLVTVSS VL: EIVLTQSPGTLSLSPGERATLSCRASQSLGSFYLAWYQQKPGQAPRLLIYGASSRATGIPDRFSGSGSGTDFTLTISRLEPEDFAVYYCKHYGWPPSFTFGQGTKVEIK', 'Yes'),
  ('L1.LGF/L3.NY/H3.AP: anti-BCMA antibody (antibody, V domains shown) VH: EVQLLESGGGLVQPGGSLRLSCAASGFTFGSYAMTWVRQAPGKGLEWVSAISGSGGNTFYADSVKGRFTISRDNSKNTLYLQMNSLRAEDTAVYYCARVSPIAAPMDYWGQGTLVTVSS VL: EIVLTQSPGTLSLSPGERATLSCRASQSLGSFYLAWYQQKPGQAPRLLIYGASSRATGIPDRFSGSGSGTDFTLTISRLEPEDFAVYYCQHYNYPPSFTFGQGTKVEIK', 'No'),
  ('L1.LGF/L3.NY/H3.AL: anti-BCMA antibody (antibody, V domains shown) VH: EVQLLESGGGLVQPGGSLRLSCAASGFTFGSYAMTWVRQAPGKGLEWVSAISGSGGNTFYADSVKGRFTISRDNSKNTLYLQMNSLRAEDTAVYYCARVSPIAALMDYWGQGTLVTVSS VL: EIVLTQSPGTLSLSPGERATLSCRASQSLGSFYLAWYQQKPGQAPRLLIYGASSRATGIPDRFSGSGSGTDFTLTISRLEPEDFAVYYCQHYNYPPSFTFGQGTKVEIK', 'Yes'),
  ('L1.LGF/L3.PY/H3.AP: anti-BCMA antibody (antibody, V domains shown) VH: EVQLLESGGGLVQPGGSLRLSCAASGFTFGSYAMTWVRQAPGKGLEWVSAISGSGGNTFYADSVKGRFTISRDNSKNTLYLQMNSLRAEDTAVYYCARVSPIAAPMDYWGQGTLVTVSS VL: EIVLTQSPGTLSLSPGERATLSCRASQSLGSFYLAWYQQKPGQAPRLLIYGASSRATGIPDRFSGSGSGTDFTLTISRLEPEDFAVYYCQHYPYPPSFTFGQGTKVEIK', 'Yes');
